Test system: HepG2
Experiment: CCK-8 anti-tumor activity, IC50
Assay type: cell-based
Settings: Homo sapiens, read-out: IC50 value against the HepG2 cells
measured-property: pIC50
Here pIC50 is given on a logarithmic scale as minus log10 of the concentration in mol/L.

Ask | Using the record for COc1ccc(CCc2cc(OC)c(OC)c(OC)c2)cc1OC(=O)C(Cl)Cl , report its pIC50.
Reply | 7.31

###

Would you mind telling me the reported inhibition at 1 µM of each entry?
Tested on: HepG2 cell strain
Experiment: In-vitro inhibitory activity against proliferation of tumor cells (CCK8, inhibition rate)
Type: cell-based, human
Details: Homo sapiens, 1 μM, 72 hours

Ask | Field request: inhibition at 1 µM | item: COc1ccc(CCc2cc(OC)c(OC)c(OC)c2)cc1OC(=O)CCCCCNC(=O)C(Cl)Cl [8d]
Reply | 73%

Ask | Bench note: what inhibition at 1 µM did COc1ccc(CCc2cc(OC)c(OC)c(OC)c2)cc1OC(=O)C(Cl)Cl [7a] show?
Reply | 94.4%

Ask | Which inhibition at 1 µM value is on record for COc1ccc(CCc2cc(OC)c(OC)c(OC)c2)cc1OC(=O)CCNC(=O)C(Cl)Cl [8b] ?
Reply | 55.8%

Ask | Sample COc1ccc(CCc2cc(OC)c(OC)c(OC)c2)cc1OC(=O)CNC(=O)C(Cl)Cl [8a] — what was its inhibition at 1 µM?
Reply | 30%

Ask | What inhibition at 1 µM value was documented for this compound, CCOc1ccc(CCc2cc(OC)c(OC)c(OC)c2)cc1OC(=O)C(Cl)Cl [7b] ?
Reply | 48.4%

Ask | Need inhibition at 1 µM of COc1ccc(CCc2cc(OC)c(OC)c(OC)c2)cc1OC(=O)CCCNC(=O)C(Cl)Cl [8c] , thanks.
Reply | 68.7%

###

System: SW480
Assay: CCK-8 anti-tumor activity, IC50
Assay type: cell-based
Conditions: Homo sapiens, 72 hours
Can you tell me pIC50 for the items I'm about to list?
Scale: pIC50 equals -log10([C]), with [C] in mol/L.

Ask | Please report the recorded pIC50 for COc1ccc(CCc2cc(OC)c(OC)c(OC)c2)cc1OC(=O)C(Cl)Cl .
Reply | 6.03

Ask | Find the recorded pIC50 belonging to COc1ccc(CCc2cc(OC)c(OC)c(OC)c2)cc1OC(=O)CCCCCNC(=O)C(Cl)Cl and report it.
Reply | 6.49

###

Tested on: A549
Experiment: CCK-8 anti-tumor activity, IC50
Assay type: cell-based
Settings: Homo sapiens, 72 hours
measured-property: pIC50
Just so you know, pIC50 here is -log10 of the concentration in molar units; reply with that number alone.

Ask | Which pIC50 is reported for this molecule? COc1ccc(CCc2cc(OC)c(OC)c(OC)c2)cc1OC(=O)C(Cl)Cl
Reply | 6.14

###

Tested on: Hela
Experiment: CCK-8 anti-tumor activity, IC50
Assay type: cell-based
Settings: Homo sapiens, 72 hours, read-out: IC50
Please provide measured IC50 for the entries that follow.
Number only, in nM; omit the unit.

Ask | Entry COc1ccc(CCc2cc(OC)c(OC)c(OC)c2)cc1OC(=O)C(Cl)Cl has what IC50?
Reply | 516

Ask | What measured IC50 goes with COc1ccc(CCc2cc(OC)c(OC)c(OC)c2)cc1OC(=O)CCCCCNC(=O)C(Cl)Cl ?
Reply | 288

From: patent US20240350448A1
